Target: RAC-beta serine/threonine-protein kinase (Homo sapiens) (UniProt P31751)
Sequence (P31751 whole entry): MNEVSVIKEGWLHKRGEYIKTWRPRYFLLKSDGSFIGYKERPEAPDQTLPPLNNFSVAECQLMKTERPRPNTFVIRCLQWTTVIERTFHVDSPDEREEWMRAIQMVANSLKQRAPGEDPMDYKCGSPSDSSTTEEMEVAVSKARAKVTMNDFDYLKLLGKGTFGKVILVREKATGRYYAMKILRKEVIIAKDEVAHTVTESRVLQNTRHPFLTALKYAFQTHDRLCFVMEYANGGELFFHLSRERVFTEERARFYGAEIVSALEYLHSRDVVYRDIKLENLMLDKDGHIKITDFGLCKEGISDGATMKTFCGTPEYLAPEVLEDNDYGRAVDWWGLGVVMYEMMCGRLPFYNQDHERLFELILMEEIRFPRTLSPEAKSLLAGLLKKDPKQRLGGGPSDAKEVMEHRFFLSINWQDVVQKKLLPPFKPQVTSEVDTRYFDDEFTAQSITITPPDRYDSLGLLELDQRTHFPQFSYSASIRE
Assay: Inhibition of AKT2 (unknown origin) at 1 uM by KINOMEscanning assay relative to control; values are per cent of control
MEASURED_METRIC: residual activity
Could you give the number and then its unit, please?

For orientation, consider the following solved cases.
mol=COc1ccc(-c2cnc3[nH]cc(-c4ccc(OC)c(OC)c4)c3c2)cc1N test_value=100%
mol=COc1ccc(-c2c[nH]c3ncc(-c4cc(OC)c(OC)c(OC)c4)cc23)cc1OC test_value=100%
mol=COc1ccc(-c2cnc3[nH]cc(-c4ccc(OC)c(OC)c4)c3c2)cc1OC test_value=100%
mol=COc1ccc(-c2c[nH]c3ncc(-c4ccc(C(=O)N5CCOCC5)c(N)c4)cc23)cc1OC test_value=97%

The recorded residual activity for entry `COc1cc(-c2c[nH]c3ncc(-c4cccc(N)c4)cc23)cc(OC)c1OC` equals 100%

====

Target: Phosphatidylinositol 4,5-bisphosphate 3-kinase catalytic subunit alpha isoform (Homo sapiens, UniProt P42336)
Sequence (P42336 whole entry, canonical isoform): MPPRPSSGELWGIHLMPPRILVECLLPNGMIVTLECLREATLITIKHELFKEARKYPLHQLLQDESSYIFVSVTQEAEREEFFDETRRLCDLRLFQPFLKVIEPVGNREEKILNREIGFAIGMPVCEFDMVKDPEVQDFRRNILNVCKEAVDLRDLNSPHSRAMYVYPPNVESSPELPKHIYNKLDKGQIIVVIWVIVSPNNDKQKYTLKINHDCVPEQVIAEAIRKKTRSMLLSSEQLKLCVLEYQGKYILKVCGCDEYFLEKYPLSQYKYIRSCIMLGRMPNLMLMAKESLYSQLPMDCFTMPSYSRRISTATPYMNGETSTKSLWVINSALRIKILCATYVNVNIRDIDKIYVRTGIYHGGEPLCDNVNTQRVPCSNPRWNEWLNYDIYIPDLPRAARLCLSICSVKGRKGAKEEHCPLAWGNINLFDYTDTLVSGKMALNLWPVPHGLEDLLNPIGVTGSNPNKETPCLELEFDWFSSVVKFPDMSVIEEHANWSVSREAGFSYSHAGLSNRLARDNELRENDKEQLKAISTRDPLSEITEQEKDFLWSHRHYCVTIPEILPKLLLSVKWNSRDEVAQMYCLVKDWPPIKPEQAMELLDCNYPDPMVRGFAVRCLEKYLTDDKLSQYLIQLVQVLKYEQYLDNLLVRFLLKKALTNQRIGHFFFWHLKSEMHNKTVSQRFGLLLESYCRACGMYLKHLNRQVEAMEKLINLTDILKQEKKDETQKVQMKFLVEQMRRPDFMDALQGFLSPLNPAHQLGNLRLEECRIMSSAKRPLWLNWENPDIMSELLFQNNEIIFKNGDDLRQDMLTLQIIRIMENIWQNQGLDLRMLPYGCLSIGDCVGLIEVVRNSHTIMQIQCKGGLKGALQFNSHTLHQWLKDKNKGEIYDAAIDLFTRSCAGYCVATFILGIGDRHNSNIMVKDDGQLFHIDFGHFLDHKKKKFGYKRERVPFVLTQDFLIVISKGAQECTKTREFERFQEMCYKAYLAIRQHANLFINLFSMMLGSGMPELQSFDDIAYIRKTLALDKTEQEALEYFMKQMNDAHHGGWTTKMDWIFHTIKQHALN
Test: Inhibition of PI3Kalpha (unknown origin) at 1 uM by KINOMEscanning assay relative to control; values are per cent of control
MEASURED_METRIC: residual activity

For orientation, consider the following solved cases.
mol=COc1ccc(-c2c[nH]c3ncc(-c4ccc(C(=O)N5CCOCC5)c(N)c4)cc23)cc1OC measured_metric="residual activity" test_value=100%
mol=COc1ccc(-c2cnc3[nH]cc(-c4ccc(OC)c(OC)c4)c3c2)cc1N measured_metric="residual activity" test_value=71%

The recorded residual activity for entry `COc1ccc(-c2cnc3[nH]cc(-c4ccc(OC)c(OC)c4)c3c2)cc1OC` equals 66%

The recorded residual activity for entry `COc1cc(-c2c[nH]c3ncc(-c4cccc(N)c4)cc23)cc(OC)c1OC` equals 71%

The recorded residual activity for entry `COc1ccc(-c2c[nH]c3ncc(-c4cc(OC)c(OC)c(OC)c4)cc23)cc1OC` equals 75%

====

Biological target: Serine/threonine-protein kinase PLK1 (Homo sapiens) (UniProt P53350)
Sequence (P53350 whole entry): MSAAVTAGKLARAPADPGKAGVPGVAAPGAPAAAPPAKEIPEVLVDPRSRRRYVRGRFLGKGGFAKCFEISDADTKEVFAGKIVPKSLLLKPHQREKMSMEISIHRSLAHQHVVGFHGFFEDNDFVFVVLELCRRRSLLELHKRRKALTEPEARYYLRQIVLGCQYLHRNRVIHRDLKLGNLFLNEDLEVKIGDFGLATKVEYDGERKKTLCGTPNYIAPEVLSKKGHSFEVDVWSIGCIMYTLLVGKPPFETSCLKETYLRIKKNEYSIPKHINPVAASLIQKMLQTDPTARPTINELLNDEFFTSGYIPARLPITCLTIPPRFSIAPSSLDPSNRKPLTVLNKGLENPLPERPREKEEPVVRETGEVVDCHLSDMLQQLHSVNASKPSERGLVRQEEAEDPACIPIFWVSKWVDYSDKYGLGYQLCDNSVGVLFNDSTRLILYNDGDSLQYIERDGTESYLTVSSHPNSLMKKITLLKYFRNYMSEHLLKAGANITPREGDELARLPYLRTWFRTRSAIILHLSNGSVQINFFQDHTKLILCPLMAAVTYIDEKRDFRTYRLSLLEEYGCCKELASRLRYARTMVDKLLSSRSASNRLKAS
Assay: Inhibition of PLK1 (unknown origin) at 1 uM by KINOMEscanning assay relative to control; values are per cent of control
MEASURED_METRIC: residual activity
Could you give the number and then its unit, please?

For orientation, consider the following solved cases.
mol=COc1ccc(-c2c[nH]c3ncc(-c4cc(OC)c(OC)c(OC)c4)cc23)cc1OC measured_metric="residual activity" test_value=99%
mol=COc1cc(-c2c[nH]c3ncc(-c4cccc(N)c4)cc23)cc(OC)c1OC measured_metric="residual activity" test_value=100%
mol=COc1ccc(-c2cnc3[nH]cc(-c4ccc(OC)c(OC)c4)c3c2)cc1N measured_metric="residual activity" test_value=84%
mol=COc1ccc(-c2cnc3[nH]cc(-c4ccc(OC)c(OC)c4)c3c2)cc1OC measured_metric="residual activity" test_value=98%

Consider the record given below.
The recorded residual activity for entry `COc1ccc(-c2c[nH]c3ncc(-c4ccc(C(=O)N5CCOCC5)c(N)c4)cc23)cc1OC` equals 84%

====

Target: Tyrosine-protein kinase JAK1 (Homo sapiens)
Assay: Inhibition of JAK1 (unknown origin) at 1 uM by KINOMEscanning assay relative to control; values are per cent of control
MEASURED_METRIC: residual activity (%)
# value in %; strip the unit string

For orientation, consider the following solved cases.
mol=COc1cc(-c2c[nH]c3ncc(-c4cccc(N)c4)cc23)cc(OC)c1OC measured_metric="residual activity" test_value=71
mol=COc1ccc(-c2cnc3[nH]cc(-c4ccc(OC)c(OC)c4)c3c2)cc1OC measured_metric="residual activity" test_value=100
mol=COc1ccc(-c2c[nH]c3ncc(-c4cc(OC)c(OC)c(OC)c4)cc23)cc1OC measured_metric="residual activity" test_value=92

The recorded residual activity for entry `COc1ccc(-c2cnc3[nH]cc(-c4ccc(OC)c(OC)c4)c3c2)cc1N` equals 93

The recorded residual activity for entry `COc1ccc(-c2c[nH]c3ncc(-c4ccc(C(=O)N5CCOCC5)c(N)c4)cc23)cc1OC` equals 100
